tested on: RPMI-8226 leukemia; test: NCI tumour cell line growth inhibition, 48 h
parameter-measured: TGI (µM)
Give the value in µM but do not write µM after it.

Use these answered entries as a reference point.
• O=C1/C(=C/c2ccc(Br)s2)NC(=S)N1c1ccccc1 = 85.1
• Cc1ccc(C2SCC(=O)N2c2ccc(-n3c(-c4ccccc4)nc4ccccc4c3=O)cc2)cc1 (stereo not given) = 55.1
• CC/C=C\C[C@H](O)C/C=C1/C(=O)C(Cl)=C[C@@H]1C/C=C\CCCC(=O)OC = 0.88
• COC(=O)c1c(O)ccc2c1c1c(n2Cc2cc(OC)cc(OC)c2)C(=O)c2ccccc2C1 = 36.2

Now look at this entry.
For the compound `O=C(O)CCCc1nc2c(n1Cc1ccccc1)C(=O)c1ccccc1C2=O` , what TGI is on record?
68.8
